Origin of values: patent US7879887B2

Measured pIC50, listed per entry.
Target: CDK1/Cyclin B complex (Homo sapiens, UniProt P06493)
Sequence (P06493 whole entry): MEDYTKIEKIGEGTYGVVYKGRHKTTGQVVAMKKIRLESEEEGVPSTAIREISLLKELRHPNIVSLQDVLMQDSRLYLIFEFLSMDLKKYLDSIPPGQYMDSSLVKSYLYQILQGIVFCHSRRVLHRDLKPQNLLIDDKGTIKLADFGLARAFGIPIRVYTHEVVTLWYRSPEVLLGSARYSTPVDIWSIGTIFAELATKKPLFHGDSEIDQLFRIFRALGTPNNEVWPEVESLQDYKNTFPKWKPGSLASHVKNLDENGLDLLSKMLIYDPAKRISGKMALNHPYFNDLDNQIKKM
Sequence (P14635 whole entry partner): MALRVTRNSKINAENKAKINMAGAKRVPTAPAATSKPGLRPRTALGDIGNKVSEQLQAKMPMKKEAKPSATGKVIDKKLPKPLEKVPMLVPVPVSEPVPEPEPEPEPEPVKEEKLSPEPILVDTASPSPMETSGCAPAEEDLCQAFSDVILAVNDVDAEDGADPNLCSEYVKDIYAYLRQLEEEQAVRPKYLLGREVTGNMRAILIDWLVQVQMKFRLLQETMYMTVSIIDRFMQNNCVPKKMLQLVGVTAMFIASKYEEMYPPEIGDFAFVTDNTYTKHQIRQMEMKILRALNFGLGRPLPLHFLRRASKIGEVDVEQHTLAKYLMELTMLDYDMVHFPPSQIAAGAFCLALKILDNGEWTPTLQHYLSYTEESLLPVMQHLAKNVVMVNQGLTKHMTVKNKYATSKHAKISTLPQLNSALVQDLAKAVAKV
Experiment: In vitro kinase assay, CDK1/Cyclin B complex
Settings: recombinant protein (Upstate)
Procedure: Inhibitory activity against Aurora A, CDK1/Cyclin B complex, CDK2/Cyclin E complex and CDK3/Cyclin E complex were measured by in vitro kinase assay using recombinant proteins. The assays were carried out by using recombinant proteins (Upstate Inc.) for Aurora A, CDK1/Cyclin B complex, CDK2/Cyclin E complex and CDK3/Cyclin E complex (respective cat. nos. 14-511, 14-450, 14-448 and 14-487), in accordance with the procedure described in the product instructions thereof. […]
By convention, pIC50 is the negative base-10 log of a molar concentration.

# annotated cases, reported pIC50 shown
> print(dat)
                                   molecule  value.reported
1  CC(C)(Nc1cccc(S(N)(=O)=O)c1)C(=O)Nc1nc2c(C(F)(F)F)cc3[nH]ncc3c2s1            7.70
2  CCNC(=O)c1cc(NC(C)(C)C(=O)Nc2nc3c(C(F)(F)F)cc4[nH]ncc4c3s2)ccc1F            6.73
3  O=C(CNc1ccc(Cl)c(O)c1)Nc1nc2ccc3[nH]ncc3c2s1            6.59
4  CC(C)(Nc1ccc(Cl)c(C(=O)NCCC(=O)O)c1)C(=O)Nc1nc2c(C(F)(F)F)cc3[nH]ncc3c2s1            6.62
5  CNC(=O)Nc1cc(NC(C)(C)C(=O)Nc2nc3c(C(F)(F)F)cc4[nH]ncc4c3s2)ccc1Cl            6.44
6  CC(C)(Nc1cccc(C(=O)NCCCC(=O)O)c1)C(=O)Nc1nc2c(C(F)(F)F)cc3[nH]ncc3c2s1            6.35
7  CC(C)(Nc1ccc(Cl)c(OCC(O)CO)c1)C(=O)Nc1nc2c(C(F)(F)F)cc3[nH]ncc3c2s1 (stereo not drawn)            6.85
8  CNC(=O)c1cc(NC2(C(=O)Nc3nc4ccc5[nH]ncc5c4s3)CC2)ccc1Cl            6.84

For CC(C)(Nc1ccc(Cl)c(C(N)=O)c1)C(=O)Nc1nc2c(C(F)(F)F)cc3[nH]ncc3c2s1 the molecule record lists pIC50 as 7.08

For CC(C)(Nc1ccc(F)c(C(N)=O)c1)C(=O)Nc1nc2c(C(F)(F)F)cc3[nH]ncc3c2s1 the molecule record lists pIC50 as 7.28

For O=C(CNc1ccc(Cl)cc1)Nc1nc2ccc3[nH]ncc3c2s1 the molecule record lists pIC50 as 6.43

For CC(C)(Nc1ccc(Cl)c(C(=O)NCCCC(=O)O)c1)C(=O)Nc1nc2c(C(F)(F)F)cc3[nH]ncc3c2s1 the molecule record lists pIC50 as 6.53
